Where these numbers come from: ChEMBL document CHEMBL1146654

# targetEntity: Cyclin-dependent kinase 2/cyclin A (Homo sapiens)
# measurementDescription: Inhibition of Cyclin-dependent kinase 2-cyclin A
pIC50: −log10 of the molar value.
assayReadout: pIC50

{"smilesString": "COCCCn1cc(C2=C(c3ccccc3O)C(=O)NC2=O)c2cccnc21", "pIC50": 6.37}

(1) O=C1NC(=O)C(c2cn(CCCO)c3ncccc23)=C1c1ncc(C(F)(F)F)cc1Cl
(2) COc1ccccc1C1=C(c2cn(CCCNC(=O)OC(C)(C)C)c3ncccc23)C(=O)NC1=O
Problem: # argmax over pIC50 for candidates 1 and 2 Kindly state the label of the option you pick.
Result: 2

---

# targetEntity: Protein kinase C gamma type (Homo sapiens)
# measurementDescription: Inhibitory activity of 10 uM compound against protein kinase C-gamma using histone as substrate
Recorded inhibition for the following compounds

// solved cases for inhibition follow
{"smilesString": "O=C1NC(=O)C(c2cn(CCCO)c3ncccc23)=C1c1cccc2ccccc12", "inhibition": "50%"}
{"smilesString": "CCn1cc(C2=C(c3cn(CCCO)c4ncccc34)C(=O)NC2=O)c2cccnc21", "inhibition": "< 50%"}
{"smilesString": "O=C1NC(=O)C(c2cn(CCCO)c3ncccc23)=C1c1ccc(F)cc1Cl", "inhibition": "< 50%"}
{"smilesString": "COc1ccccc1C1=C(c2cn(CCCN)c3ncccc23)C(=O)NC1=O", "inhibition": "< 50%"}

Lab note: next compound to report on.
The compound listed as O=C1NC(=O)C(c2cn(CCCO)c3ncccc23)=C1c1cccs1 shows inhibition equal to < 50%

---

# targetEntity: Glycogen synthase kinase-3 beta (Homo sapiens, UniProt P49841)
# Sequence (P49841 whole entry): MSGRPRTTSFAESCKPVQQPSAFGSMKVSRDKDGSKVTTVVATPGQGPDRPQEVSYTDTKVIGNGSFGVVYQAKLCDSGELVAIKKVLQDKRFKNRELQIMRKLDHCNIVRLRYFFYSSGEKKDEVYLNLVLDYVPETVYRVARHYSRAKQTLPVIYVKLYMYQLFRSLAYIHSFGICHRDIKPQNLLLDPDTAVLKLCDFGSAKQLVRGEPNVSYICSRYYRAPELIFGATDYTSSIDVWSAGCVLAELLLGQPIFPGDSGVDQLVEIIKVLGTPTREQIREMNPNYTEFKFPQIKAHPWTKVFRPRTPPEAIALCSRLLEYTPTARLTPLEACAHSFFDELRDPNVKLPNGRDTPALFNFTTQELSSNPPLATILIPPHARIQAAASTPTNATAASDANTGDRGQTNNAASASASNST
# measurementDescription: Effective concentration of compound against glycogen synthase kinase-3 in HEK293 cells
# Format: functional, cell-based
assayReadout: EC50 (µM)

(1) O=C1NC(=O)C(c2cn(CCCO)c3ncccc23)=C1c1ncc(C(F)(F)F)cc1Cl
(2) COc1ccccc1C1=C(c2cn(CCCNC(=O)OC(C)(C)C)c3ncccc23)C(=O)NC1=O
Problem: # argmax over EC50 for candidates 1 and 2 Kindly state the label of the option you pick.
Result: 1
(1: 0.62 µM, 2: 0.04 µM)

---

# targetEntity: Ribosomal protein S6 kinase alpha-3 (Homo sapiens, UniProt P51812)
# Sequence (P51812 whole entry): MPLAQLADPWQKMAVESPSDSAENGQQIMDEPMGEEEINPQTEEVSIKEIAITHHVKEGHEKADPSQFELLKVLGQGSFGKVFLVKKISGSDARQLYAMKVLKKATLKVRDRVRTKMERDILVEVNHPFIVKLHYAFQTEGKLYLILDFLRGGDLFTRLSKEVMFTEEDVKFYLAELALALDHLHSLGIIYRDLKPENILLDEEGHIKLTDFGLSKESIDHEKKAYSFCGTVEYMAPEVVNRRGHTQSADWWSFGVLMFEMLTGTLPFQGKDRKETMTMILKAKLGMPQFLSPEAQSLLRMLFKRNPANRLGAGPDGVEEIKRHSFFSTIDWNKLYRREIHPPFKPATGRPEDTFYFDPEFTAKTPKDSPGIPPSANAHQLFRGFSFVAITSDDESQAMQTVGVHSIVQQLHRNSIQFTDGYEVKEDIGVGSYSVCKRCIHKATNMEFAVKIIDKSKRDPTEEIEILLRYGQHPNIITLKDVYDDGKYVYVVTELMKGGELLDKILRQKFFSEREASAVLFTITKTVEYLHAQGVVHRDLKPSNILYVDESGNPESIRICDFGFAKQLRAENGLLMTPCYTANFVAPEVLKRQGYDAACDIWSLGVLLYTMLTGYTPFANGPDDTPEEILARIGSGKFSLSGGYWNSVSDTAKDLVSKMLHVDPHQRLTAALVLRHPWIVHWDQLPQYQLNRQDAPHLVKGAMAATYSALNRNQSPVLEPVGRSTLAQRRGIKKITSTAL
# measurementDescription: Inhibition of Ribosomal S6 kinase 3
assayReadout: IC50 (nM)
Give just the numeric value; nM need not be written.

The compound listed as COc1ccccc1C1=C(c2cn(CCCNC(=O)OC(C)(C)C)c3ncccc23)C(=O)NC1=O shows IC50 equal to 640

---

Please consider the recorded IC50 for Protein kinase C beta type (Homo sapiens, UniProt P05771) in what follows.
assayReadout: IC50 (nM)

// solved cases for IC50 follow
{"smilesString": "O=C1NC(=O)C(c2cn(CCCO)c3ncccc23)=C1c1ccccc1C(F)(F)F", "IC50 [nM]": 1850}
{"smilesString": "COCCCn1cc(C2=C(c3ccccc3O)C(=O)NC2=O)c2cccnc21", "IC50 [nM]": 4360}
{"smilesString": "COc1ccccc1C1=C(c2cn(CCCNS(C)(=O)=O)c3ncccc23)C(=O)NC1=O", "IC50 [nM]": 1880}
{"smilesString": "O=C1NC(=O)C(c2cn(CCCO)c3ncccc23)=C1c1cccc2ccccc12", "IC50 [nM]": 270}

(a) O=C1NC(=O)C(c2cn(CCCO)c3ncccc23)=C1c1ccccc1Cl
(b) CCn1cc(C2=C(c3cn(CCCO)c4ncccc34)C(=O)NC2=O)c2cccnc21
Problem: # argmax over IC50 for candidates a and b Kindly state the label of the option you pick.
Result: b
